Target under test: T1, Arabidopsis COP1^349–675 WD40 domain (Arabidopsis, UniProt P43254 349-675)
T1 chain: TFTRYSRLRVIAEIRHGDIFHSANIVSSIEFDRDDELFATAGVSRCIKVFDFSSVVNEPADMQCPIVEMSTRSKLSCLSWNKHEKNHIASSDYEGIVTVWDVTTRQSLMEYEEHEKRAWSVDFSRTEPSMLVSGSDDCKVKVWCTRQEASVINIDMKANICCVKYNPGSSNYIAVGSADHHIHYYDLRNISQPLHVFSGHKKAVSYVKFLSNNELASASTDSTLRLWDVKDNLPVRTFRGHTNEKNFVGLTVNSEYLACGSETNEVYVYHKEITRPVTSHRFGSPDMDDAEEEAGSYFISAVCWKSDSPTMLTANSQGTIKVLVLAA
Assay comment: ITC
# pKd values compiled below
# log scale: pKd equals minus log10 of the concentration in mol/L

Please review the entries below; each comes with its answer.
GFGVVPSF [COL3^287–294 VP peptide]; 4.41
NDQQVPSAV [CRY2^527–535 VP peptide]; 4.68
EDQMVPSIT [CRY1^544–552 VP peptide]; 5.52

Give the measured pKd of GYGIVPSF [CO^366–373 VP peptide] .
4.13
